Data origin, for the record: patent US10040781B2

# Test system: UniProtKB O60674
# Sequence (O60674 whole entry): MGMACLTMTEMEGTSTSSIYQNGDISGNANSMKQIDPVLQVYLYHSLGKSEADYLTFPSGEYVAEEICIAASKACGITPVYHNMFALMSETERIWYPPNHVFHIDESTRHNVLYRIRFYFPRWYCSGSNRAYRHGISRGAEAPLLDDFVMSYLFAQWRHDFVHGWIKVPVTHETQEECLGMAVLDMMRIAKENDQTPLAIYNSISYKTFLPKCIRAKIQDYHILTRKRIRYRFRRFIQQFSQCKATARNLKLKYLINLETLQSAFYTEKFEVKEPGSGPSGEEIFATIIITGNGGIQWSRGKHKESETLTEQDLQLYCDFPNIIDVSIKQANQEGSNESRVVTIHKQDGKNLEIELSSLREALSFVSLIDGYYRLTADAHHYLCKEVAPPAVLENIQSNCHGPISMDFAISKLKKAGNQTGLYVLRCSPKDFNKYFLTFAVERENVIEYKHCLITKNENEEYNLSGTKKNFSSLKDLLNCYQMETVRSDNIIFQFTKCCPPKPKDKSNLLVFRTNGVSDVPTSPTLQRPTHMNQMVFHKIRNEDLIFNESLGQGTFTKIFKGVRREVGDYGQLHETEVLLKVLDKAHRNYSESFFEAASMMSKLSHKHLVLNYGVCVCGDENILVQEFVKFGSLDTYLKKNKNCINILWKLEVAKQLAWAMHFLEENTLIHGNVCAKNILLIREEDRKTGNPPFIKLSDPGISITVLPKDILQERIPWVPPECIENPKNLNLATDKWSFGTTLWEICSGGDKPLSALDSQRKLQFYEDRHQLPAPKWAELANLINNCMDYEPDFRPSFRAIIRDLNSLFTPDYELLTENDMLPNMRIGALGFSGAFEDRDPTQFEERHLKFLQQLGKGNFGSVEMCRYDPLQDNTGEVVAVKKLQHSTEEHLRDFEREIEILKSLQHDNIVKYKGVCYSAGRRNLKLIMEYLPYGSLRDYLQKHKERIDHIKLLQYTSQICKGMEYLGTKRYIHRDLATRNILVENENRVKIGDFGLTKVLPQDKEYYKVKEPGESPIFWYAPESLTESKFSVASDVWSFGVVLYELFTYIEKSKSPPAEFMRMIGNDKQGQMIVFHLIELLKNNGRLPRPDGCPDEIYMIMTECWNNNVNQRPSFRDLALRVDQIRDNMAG
pIC50: −log10 of the molar value.
Value kind: pIC50

Here's what some known entries look like.
[[record]]
molecule = "N#Cc1cc(-c2ncnc(Nc3ccc(N4CCN(C5COC5)CC4)cc3)n2)ccc1N1CC[C@H](O)C1"
observed = 6.50

[[record]]
molecule = "N#Cc1cc(-c2ncnc(Nc3ccc(N4CCN(C5COC5)CC4)cc3)n2)ccc1O[C@H]1CCOC[C@H]1F"
observed = 6.40

[[record]]
molecule = "N#Cc1cc(-c2ncnc(Nc3ccc(N4CCN(C5COC5)CC4)cc3)n2)ccc1O[C@H]1CCN(C(=O)Cc2cnn[nH]2)C[C@H]1F"
observed = 6.99

[[record]]
molecule = "N#Cc1cc(-c2ncnc(Nc3ccc(N4CCN(C5COC5)CC4)cc3)n2)ccc1O[C@H]1CCN(C(=O)C(F)F)C[C@H]1F"
observed = 6.50

[[record]]
molecule = "CC(=O)N1CC[C@H](Oc2ccc(-c3ncnc(Nc4ccc(C5CCN(C)CC5)cc4)n3)cc2C#N)C(F)(F)C1"
observed = 6.76

[[record]]
molecule = "Cn1ncc2ccc(Nc3ncnc(-c4ccc(O[C@H]5CCN(C(=O)CO)C[C@H]5F)c(C#N)c4)n3)cc21"
observed = 6.59

[[record]]
molecule = "N#Cc1cc(-c2ncnc(Nc3ccc(N4CCN(C5COC5)CC4)cc3)n2)ccc1O[C@H]1CCN(C(=O)c2cc(Cl)n[nH]2)C[C@H]1F"
observed = 6.63


(1) CC1CC(Oc2ccc(-c3ncnc(Nc4ccc(N5CCN(C6COC6)CC5)cc4)n3)cc2C#N)CC(C)N1C(=O)CO (stereo not shown)
(2) C[C@H](O)C(=O)N1CC[C@H](Oc2ccc(-c3ncnc(Nc4cnn(C5COC5)c4)n3)cc2C#N)[C@H](F)C1
Query :: Please tell me which of the two, 1 or 2 , has the higher reported pIC50 value. Let me know the label of the one you choose.
Result :: 1

----------
# Test system: IKKε (Homo sapiens (Human))
# Sequence (Q14164 whole entry): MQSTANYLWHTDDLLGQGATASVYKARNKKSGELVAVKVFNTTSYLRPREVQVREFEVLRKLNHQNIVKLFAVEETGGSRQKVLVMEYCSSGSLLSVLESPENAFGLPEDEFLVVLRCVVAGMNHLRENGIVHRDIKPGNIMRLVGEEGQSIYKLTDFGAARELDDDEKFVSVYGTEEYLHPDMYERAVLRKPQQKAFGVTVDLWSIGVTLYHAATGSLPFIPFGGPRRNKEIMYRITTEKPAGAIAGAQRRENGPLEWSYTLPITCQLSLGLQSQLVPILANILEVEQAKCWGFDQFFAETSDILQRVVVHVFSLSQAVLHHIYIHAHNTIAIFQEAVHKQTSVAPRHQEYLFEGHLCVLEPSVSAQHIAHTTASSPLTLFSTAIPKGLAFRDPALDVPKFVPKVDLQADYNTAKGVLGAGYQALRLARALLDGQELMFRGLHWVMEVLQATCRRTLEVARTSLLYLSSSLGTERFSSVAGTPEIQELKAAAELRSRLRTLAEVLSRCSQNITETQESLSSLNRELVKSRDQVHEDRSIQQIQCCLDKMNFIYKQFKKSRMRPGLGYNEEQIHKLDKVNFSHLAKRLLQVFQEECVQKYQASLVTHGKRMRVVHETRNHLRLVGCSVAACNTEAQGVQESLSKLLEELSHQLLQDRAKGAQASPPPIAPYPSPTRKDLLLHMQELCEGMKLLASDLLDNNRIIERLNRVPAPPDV
# Assay info: IKKε TR-FRET enzymatic assay
# Assay type: biochemical
# Setup conditions: read-out: IKKe IC50
Value kind: IC50 (nM)

Illustrative cases are given below, each with its answer.
[[record]]
compound = "C[C@@H]1C[C@@H](Oc2ccc(-c3ncnc(Nc4ccc(N5CCN(C6COC6)CC5)cc4)n3)cc2C#N)CN1C(=O)CO [Example 99]"
test_system = "IKKε (Homo sapiens (Human))"
value_kind = "IC50"
uom = "nM"
observed = 193

[[record]]
compound = "CN1CC2(CCN(c3ccc(-c4ncnc(Nc5ccc(N6CCN(C7COC7)CC6)cc5)n4)cc3C#N)CC2)C1 [Example 209]"
test_system = "IKKε (Homo sapiens (Human))"
value_kind = "IC50"
uom = "nM"
observed = 213

[[record]]
compound = "N#Cc1cc(-c2ncnc(Nc3ccc(N4CCN(C5COC5)CC4)cc3)n2)ccc1O[C@@H]1CCOC1 [Example 29]"
test_system = "IKKε (Homo sapiens (Human))"
value_kind = "IC50"
uom = "nM"
observed = 32

[[record]]
compound = "N#Cc1cc(-c2ncnc(Nc3ccc(N4CCN(C5COC5)CC4)cc3)n2)ccc1O[C@@H]1CCN(C=O)C1 [Example 95]"
test_system = "IKKε (Homo sapiens (Human))"
value_kind = "IC50"
uom = "nM"
observed = 21

[[record]]
compound = "Cn1ncc2ccc(Nc3ncnc(-c4ccc(O[C@H]5CCN(C(=O)CO)C[C@H]5F)c(C#N)c4)n3)cc21 [Example 343]"
test_system = "IKKε (Homo sapiens (Human))"
value_kind = "IC50"
uom = "nM"
observed = 2

[[record]]
compound = "C[C@H](O)C(=O)N1CC[C@H](Oc2ccc(-c3ncnc(Nc4ccc(N5CCN(C6COC6)CC5)c(C(F)F)c4)n3)cc2C#N)[C@H](F)C1 [Example 371]"
test_system = "IKKε (Homo sapiens (Human))"
value_kind = "IC50"
uom = "nM"
observed = 1


(a) Cc1ncc(C(=O)N2CC[C@H](Oc3ccc(-c4ncnc(Nc5ccc(N6CCN(C7COC7)CC6)cc5)n4)cc3C#N)[C@H](F)C2)n1C [Example 266]
(b) N#Cc1cc(-c2ncnc(Nc3ccc(OCCN4CCCC4)cc3)n2)ccc1OC1CCOCC1 [Example 332]
(c) N#Cc1cc(-c2ncnc(Nc3ccc(N4CCN(C5COC5)CC4)cc3)n2)ccc1OCC1(F)COC1 [Example 280]
(d) C[C@H](O)C(=O)N1CC[C@H](Oc2ccc(-c3ncnc(Nc4ccc(N5CCC(C)(O)CC5)cc4)n3)cc2C#N)[C@H](F)C1 [Example 355]
Query :: Provide the items ranked by increasing IC50. Please respond with the labels ordered as the question requires.
Result :: d, b, c, a

----------
# Test system: TBK1 (Homo sapiens (Human), UniProt Q9UHD2)
# Sequence (Q9UHD2 whole entry): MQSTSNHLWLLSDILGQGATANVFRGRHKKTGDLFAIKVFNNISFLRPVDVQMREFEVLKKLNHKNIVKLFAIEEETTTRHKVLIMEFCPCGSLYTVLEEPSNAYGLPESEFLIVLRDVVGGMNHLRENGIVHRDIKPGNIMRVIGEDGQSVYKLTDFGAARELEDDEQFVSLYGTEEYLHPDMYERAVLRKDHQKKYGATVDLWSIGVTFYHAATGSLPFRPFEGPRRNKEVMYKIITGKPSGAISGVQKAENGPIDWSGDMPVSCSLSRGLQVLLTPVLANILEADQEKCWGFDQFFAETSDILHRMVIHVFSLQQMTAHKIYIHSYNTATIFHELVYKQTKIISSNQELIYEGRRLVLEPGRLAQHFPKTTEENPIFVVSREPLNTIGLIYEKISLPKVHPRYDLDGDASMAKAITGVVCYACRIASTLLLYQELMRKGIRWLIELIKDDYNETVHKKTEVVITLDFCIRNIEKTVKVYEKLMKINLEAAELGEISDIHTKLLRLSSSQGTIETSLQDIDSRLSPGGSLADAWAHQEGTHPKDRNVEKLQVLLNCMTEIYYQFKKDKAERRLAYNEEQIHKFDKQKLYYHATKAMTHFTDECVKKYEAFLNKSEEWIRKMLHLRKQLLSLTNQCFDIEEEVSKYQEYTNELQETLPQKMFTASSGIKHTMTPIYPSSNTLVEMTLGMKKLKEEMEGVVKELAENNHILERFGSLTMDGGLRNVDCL
# Assay info: TBK1 TR-FRET enzymatic assay
pIC50: −log10 of the molar value.
Value kind: pIC50

[[record]]
molecule = "N#Cc1cc(-c2ncnc(Nc3ccc(N4CCN(C5COC5)CC4)cc3)n2)ccc1OC1CCC2(CC1)OCCO2"
observed = 7.57

[[record]]
molecule = "C[C@H](O)C(=O)N1CC[C@H](Oc2ccc(-c3ncnc(Nc4ccc5c(c4)NC(=O)C5(C)C)n3)cc2C#N)[C@H](F)C1"
observed = 8.70

[[record]]
molecule = "Cn1ncc2ccc(Nc3ncnc(-c4ccc(O[C@H]5CCN(C(=O)CO)C[C@H]5F)c(C#N)c4)n3)cc21"
observed = 8.40

[[record]]
molecule = "Cc1cc(Nc2ncnc(-c3ccc(N4C[C@H](O)C[C@@H]4C)c(C#N)c3)n2)ccc1N1CCN(C2COC2)CC1"
observed = 8.40

[[record]]
molecule = "N#Cc1cc(-c2ncnc(Nc3ccc(N4CCN(C5COC5)CC4)cc3)n2)ccc1O[C@@H]1CCN(C(=O)C2(O)CC2)C1"
observed = 6.76


(a) CC(C)(O)c1ccc(Nc2ncnc(-c3ccc(OC4CCOCC4)c(C#N)c3)n2)cc1
(b) N#Cc1cc(-c2ncnc(Nc3cnn(C4CCNCC4)c3)n2)ccc1O[C@H]1CCCC[C@H]1F (racemic)
Query :: Which entry shows the lesser value of pIC50 here, a or b ? Answer = label.
Result :: b
(b: 7.62, a: 8.22)

----------
# Test system: TBK1 (Homo sapiens (Human), UniProt Q9UHD2)
# Assay info: TBK1 TR-FRET enzymatic assay;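 further: phosphorylation of a biotinylated Ser/Thr peptide by purified full-length recombinant TBK1, read by TR-FRET after 240 min at 25 °C, IC50 is the geometric mean of at least four runs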
Value kind: IC50 (nM)

These recorded examples may help you get a feel for the data.
[[record]]
molecule = "C[C@H]1CN(C2COC2)CCN1c1ccc(Nc2ncnc(-c3ccc(O[C@H]4CCN(C(=O)c5cnn[nH]5)CC4(F)F)c(C#N)c3)n2)cc1"
value_kind = "IC50"
uom = "nM"
observed = 3

[[record]]
molecule = "C[C@H](O)C(=O)N1CC[C@H](Oc2ccc(-c3ncnc(Nc4ccc(N5CC6(COC6)C5)cc4)n3)cc2C#N)[C@H](F)C1"
value_kind = "IC50"
uom = "nM"
observed = 5

[[record]]
molecule = "Cc1cc(Nc2ncnc(-c3ccc(O[C@H]4CCN(C(=O)[C@@H]5CCC(=O)N5)C[C@H]4F)c(C#N)c3)n2)ccc1N1CCN(C2COC2)CC1"
value_kind = "IC50"
uom = "nM"
observed = 2

[[record]]
molecule = "CC(C)n1cc(Nc2ncnc(-c3ccc(O[C@H]4CCN(C(=O)CO)C[C@H]4F)c(C#N)c3)n2)cn1"
value_kind = "IC50"
uom = "nM"
observed = 2

[[record]]
molecule = "N#Cc1cc(-c2ncnc(Nc3ccc(N4CCN(C5COC5)CC4)c(F)c3)n2)ccc1O[C@H]1CCN(C(=O)[C@@H](O)CO)C[C@H]1F"
value_kind = "IC50"
uom = "nM"
observed = 2

[[record]]
molecule = "N#Cc1cccc(-c2ncnc(Nc3ccc(N4CCN(C5COC5)CC4)cc3)n2)c1"
value_kind = "IC50"
uom = "nM"
observed = 1000

[[record]]
molecule = "CC(=O)Nc1ccc(Nc2ncnc(-c3ccc(O[C@H]4CCN(C(=O)[C@H](C)O)C[C@H]4F)c(C#N)c3)n2)cn1"
value_kind = "IC50"
uom = "nM"
observed = 20

[[record]]
molecule = "N#Cc1cc(-c2ncnc(Nc3ccc(N4CCN(C5COC5)CC4)cc3)n2)ccc1OCC1CCC(=O)N1 (stereo not drawn)"
value_kind = "IC50"
uom = "nM"
observed = 169

[[record]]
molecule = "N#Cc1cc(-c2ncnc(Nc3ccc(N4CCN(C5COC5)CC4)nc3)n2)ccc1O[C@H]1CCN(C(=O)[C@@H](O)CO)C[C@H]1F"
value_kind = "IC50"
uom = "nM"
observed = 4

[[record]]
molecule = "N#Cc1cc(-c2ncnc(Nc3ccc(N4CCN(C5COC5)CC4)cc3)n2)ccc1OC1CCSCC1"
value_kind = "IC50"
uom = "nM"
observed = 1


(I) COc1cc(Nc2ncnc(-c3ccc(O[C@H]4CCN(C(=O)CO)C[C@H]4F)c(C#N)c3)n2)ccc1N1CCN(C)C[C@@H]1C
(II) N#Cc1cc(-c2ncnc(Nc3ccc(N4CCN(C5COC5)CC4)cc3)n2)ccc1N1CCC2(CCOC2)CC1
(III) N#Cc1cc(-c2ncnc(Nc3ccc(N4CCN(C5COC5)CC4)cc3)n2)ccc1OC1CCS(=O)(=O)CC1
Query :: Hello, I need these entries ordered by IC50, highest reading first. Thanks! Submit the labels in the order that the ranking request calls for.
Result :: III, II, I

(A) C[C@@H](O)C(=O)N1CCC(Oc2ccc(-c3ncnc(Nc4ccc(N5CCN(C6COC6)CC5)cc4)n3)cc2C#N)C(F)(F)C1 (stereo partly drawn)
(B) COc1cc(Nc2ncnc(-c3ccc(OC4CCOCC4)c(C#N)c3)n2)cc(F)c1N1CCN(C2COC2)CC1
Query :: // select label with min value of measured IC50 from [ A , B ] Respond with the label that goes with your answer.
Result :: B
(B: 2 nM, A: 3 nM)
